For each record, write down the corresponding inhibition.
Molecular target: Pyruvate kinase PKLR (Homo sapiens) (UniProt P30613)
Sequence (P30613 whole entry, looked up): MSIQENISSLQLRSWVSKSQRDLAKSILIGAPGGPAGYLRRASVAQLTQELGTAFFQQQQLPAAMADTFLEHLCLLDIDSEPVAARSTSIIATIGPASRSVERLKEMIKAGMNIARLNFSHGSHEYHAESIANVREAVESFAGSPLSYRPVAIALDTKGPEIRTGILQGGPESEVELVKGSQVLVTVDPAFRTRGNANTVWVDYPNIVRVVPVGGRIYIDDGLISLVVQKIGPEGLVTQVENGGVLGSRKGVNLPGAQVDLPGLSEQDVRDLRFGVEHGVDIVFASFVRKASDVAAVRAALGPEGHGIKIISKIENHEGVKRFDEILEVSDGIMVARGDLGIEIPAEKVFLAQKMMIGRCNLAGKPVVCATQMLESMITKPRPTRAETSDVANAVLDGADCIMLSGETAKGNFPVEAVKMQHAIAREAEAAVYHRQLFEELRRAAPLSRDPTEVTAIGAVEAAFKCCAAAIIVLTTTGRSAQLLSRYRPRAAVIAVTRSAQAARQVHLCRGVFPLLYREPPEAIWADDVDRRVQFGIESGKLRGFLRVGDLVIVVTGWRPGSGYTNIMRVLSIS
Assay: Inhibition of human pyruvate kinase R at 10 uM by LDH assay
One number for each entry, in %.

For the 6 compounds below, give their inhibition values.
1. C/C(=N\NC(=O)c1cc(Br)ccc1O)c1cc2cc(F)ccc2[nH]1
2. C/C(=N\NC(=O)c1cc(Br)ccc1O)c1cc2cc(Br)ccc2[nH]1
3. COc1ccc2[nH]c(/C(C)=N/NC(=O)c3cc(Br)ccc3O)cc2c1
4. CC(=NNC(=O)c1cc(Br)ccc1O)c1cc2cc(Cl)ccc2n1C (mixture of isomers)
5. O=C(N/N=C/c1cc2ccccc2[nH]1)c1cc(Br)ccc1O
6. CC(=NNC(=O)c1cc(I)ccc1O)c1cc2ccccc2n1C (mixture of isomers)

A)
-1.6
10.7
5.2
6.9
-0.5
4.7

* * *

Molecular target: Pyruvate kinase PKLR (Homo sapiens) (UniProt P30613)
Test: Inhibition of human pyruvate kinase L at 10 uM by LDH assay
For each record, write down the corresponding inhibition.
Record the result as number plus unit.

CC(=NNC(=O)c1cc(Br)ccc1O)c1cc2cc(Cl)ccc2n1C (mixture of isomers) : 5.7%
COc1ccc2c(c1)cc(C(C)=NNC(=O)c1cc(Br)ccc1O)n2C (mixture of isomers) : 2.8%
C/C(=N\NC(=O)c1cc(Br)ccc1O)c1nc2ccccc2[nH]1 : 2.1%

For the 2 compounds below, give their inhibition values.
1. C/C(=N\NC(=O)c1cc(Br)ccc1O)c1cc2ccccc2s1
2. CCC(=NNC(=O)c1cc2ccccc2cc1O)c1cc2cc(Br)ccc2n1C (mixture of isomers)

A)
1: 7.3%; 2: -5.6%

* * *

Target: Pyruvate kinase (Staphylococcus aureus (strain MRSA252))
Assay: Inhibition of methicillin-resistant Staphylococcus aureus 252 pyruvate kinase at 10 uM by LDH assay
Details: Staphylococcus aureus subsp. aureus MRSA252
quantity: inhibition
Record the result as number plus unit.

Solved entries (count: 2):
O=C(N/N=C/c1cc2ccccc2[nH]1)c1cc(Br)ccc1O : 89.9%
COc1ccc(Br)cc1S(=O)(=O)N/N=C(\C)c1cc2ccccc2[nH]1 : 12%

Now let's try a different one.
// recorded inhibition for CC/C(=N\NC(=O)c1cc2ccccc2cc1O)c1cc2cc(Br)ccc2[nH]1 : 99.6%

* * *

Target: Pyruvate kinase PKLR (Homo sapiens)
Assay: Inhibition of human pyruvate kinase L at 10 uM by LDH assay
quantity: inhibition
Record the result as number plus unit.

Solved entries (count: 5):
CC/C(=N\NC(=O)c1cc2ccccc2cc1O)c1cc2cc(Br)ccc2[nH]1 : -0.2%
CC(=NNC(=O)c1cc(Br)ccc1O)c1cc2cc(F)ccc2n1C (mixture of isomers) : -2.3%
C/C(=N\NC(=O)c1cc(Br)ccc1O)c1cc2cc(Cl)ccc2[nH]1 : 0.1%
O=C(NN=C(c1ccccc1)c1cc2ccccc2[nH]1)c1cc(Br)ccc1O : 5.6%
C/C(=N\NC(=O)c1cc(Br)ccc1O)c1cc2cc(F)ccc2[nH]1 : -0.5%

For the 4 compounds below, give their inhibition values.
1. C/C(=N\NC(=O)c1cc(Br)ccc1O)c1cc2ccccc2[nH]1
2. CC(=NNC(=O)c1cc(Br)ccc1O)c1cc2cc(F)c(F)cc2n1C (mixture of isomers)
3. CC(=NNC(=O)c1cc(Br)ccc1O)c1cc2cc(Br)ccc2n1C (mixture of isomers)
4. C#CCOc1ccccc1C(=O)N/N=C(\C)c1cc2cc(Br)ccc2[nH]1

A)
1: -6.9%; 2: -2.4%; 3: 9.2%; 4: 23.1%

For the 6 compounds below, give their inhibition values.
1. C/C(=N\NC(=O)c1cc(I)ccc1O)c1cc2ccccc2[nH]1
2. CCC(=NNC(=O)c1cc(Br)ccc1O)c1cc2ccccc2n1C (mixture of isomers)
3. COc1ccc(Br)cc1C(=O)N/N=C(\C)c1cc2ccccc2[nH]1
4. CC(=NNC(=O)c1cc(I)ccc1O)c1cc2ccccc2n1C (mixture of isomers)
5. O=C(N/N=C/c1cc2ccccc2[nH]1)c1cc(Br)ccc1O
6. C/C(=N\NC(=O)c1cc(Br)ccc1O)c1cc2cc(Br)ccc2[nH]1

A)
-1.6%
2.7%
27.2%
4.4%
0.2%
6.8%

For the 2 compounds below, give their inhibition values.
1. CC/C(=N\NC(=O)c1cc(Br)ccc1O)c1cc2ccccc2[nH]1
2. COc1ccc2[nH]c(/C(C)=N/NC(=O)c3cc(Br)ccc3O)cc2c1

A)
1. 3.6%
2. 3.9%

// recorded inhibition for CC(=NNC(=O)c1cc(Br)ccc1O)c1nc2ccccc2n1C (mixture of isomers) : -1.3%

* * *

Biological target: Pyruvate kinase PKLR (Homo sapiens) (UniProt P30613)
Test: Inhibition of human pyruvate kinase R at 10 uM by LDH assay
For each record, write down the corresponding inhibition.
Numbers only, in %.

Solved entries (count: 3):
CC(=NNC(=O)c1cc(Br)ccc1O)c1cc2cc(F)c(F)cc2n1C (mixture of isomers) : 9
CC/C(=N\NC(=O)c1cc(Br)ccc1O)c1cc2ccccc2[nH]1 : 4.8
CC/C(=N\NC(=O)c1cc2ccccc2cc1O)c1cc2cc(Br)ccc2[nH]1 : -3.4

Now let's try a different one.
// recorded inhibition for C#CCOc1ccccc1C(=O)N/N=C(\C)c1cc2cc(Br)ccc2[nH]1 : 24

* * *

For each record, write down the corresponding IC50.
Target: Pyruvate kinase (Staphylococcus aureus (strain MRSA252), UniProt Q6GG09)
Experiment: Inhibition of methicillin-resistant Staphylococcus aureus 252 pyruvate kinase by LDH assay
Numbers only, in nM.

For the 4 molecules below, give their IC50 values.
1. CC(=NNC(=O)c1cc(Br)ccc1O)c1cc2c(F)c(F)ccc2n1C (mixture of isomers)
2. CC(=NNC(=O)c1cc(Br)ccc1O)c1cc2cc(Cl)ccc2n1C (mixture of isomers)
3. C/C(=N\NC(=O)c1cc(Br)ccc1O)c1cc2c(F)c(F)ccc2[nH]1
4. COc1cc(O)c(C(=O)N/N=C(\C)c2cc3ccccc3[nH]2)cc1Br

A)
1. 145
2. 228
3. 24
4. 324

// recorded IC50 for Cn1c(C=NNC(=O)c2cc(Br)ccc2O)cc2ccccc21 (mixture of isomers) : 3090

* * *

System: THP-1
Test: Cytotoxicity against human THP1 cells assessed as cell death at 6.25 uM after 24 hrs by MTS assay
Assay type: cell-based
Conditions: thp-1, 24 h
For each record, write down the corresponding Activity.
One number for each entry, in %.

Cn1c(/C(=N\NC(=O)c2cc(Br)ccc2O)C(C)(C)C)cc2ccccc21 : 25
CC(C)(C)/C(=N/NC(=O)c1cc(Br)ccc1O)c1cc2ccccc2[nH]1 : 42
Cn1c(C(=NNC(=O)c2cc(Br)ccc2O)c2ccccc2)cc2ccccc21 (mixture of isomers) : 19

// recorded Activity for O=C(NN=C(c1ccccc1)c1cc2ccccc2[nH]1)c1cc(Br)ccc1O : 43

* * *

Test system: THP-1
Experiment: Cytotoxicity against human THP1 cells assessed as cell death at 25 uM after 24 hrs by MTS assay
Type: cell-based
Conditions: thp-1, 24 h
quantity: Activity (%)
Numbers only, in %.

Cn1c(C(=NNC(=O)c2cc(Br)ccc2O)c2ccccc2)cc2ccccc21 (mixture of isomers) : 78
O=C(NN=C(c1ccccc1)c1cc2ccccc2[nH]1)c1cc(Br)ccc1O : 83
CC(C)(C)/C(=N/NC(=O)c1cc(Br)ccc1O)c1cc2ccccc2[nH]1 : 50

THP-1 Activity of Cn1c(/C(=N\NC(=O)c2cc(Br)ccc2O)C(C)(C)C)cc2ccccc21 is 73

* * *

Target: Pyruvate kinase (Staphylococcus aureus (strain MRSA252)) (UniProt Q6GG09)
Sequence (whole entry): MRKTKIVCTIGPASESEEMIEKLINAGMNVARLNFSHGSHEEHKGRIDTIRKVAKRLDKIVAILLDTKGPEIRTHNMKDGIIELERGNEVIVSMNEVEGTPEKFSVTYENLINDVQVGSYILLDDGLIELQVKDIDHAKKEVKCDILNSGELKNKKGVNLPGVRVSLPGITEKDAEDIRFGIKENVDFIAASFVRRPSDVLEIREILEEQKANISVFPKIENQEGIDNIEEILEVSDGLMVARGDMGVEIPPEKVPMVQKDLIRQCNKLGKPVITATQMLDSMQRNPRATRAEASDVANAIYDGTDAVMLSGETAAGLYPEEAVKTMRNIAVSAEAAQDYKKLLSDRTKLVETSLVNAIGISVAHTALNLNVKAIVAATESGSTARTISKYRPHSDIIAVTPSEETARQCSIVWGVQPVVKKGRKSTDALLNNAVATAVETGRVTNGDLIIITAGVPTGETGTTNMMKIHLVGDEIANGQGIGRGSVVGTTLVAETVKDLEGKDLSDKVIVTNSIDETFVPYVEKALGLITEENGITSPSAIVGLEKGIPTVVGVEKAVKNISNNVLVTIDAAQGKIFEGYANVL
Test: Inhibition of methicillin-resistant Staphylococcus aureus 252 pyruvate kinase at 10 uM by LDH assay
Settings: Staphylococcus aureus subsp. aureus MRSA252
quantity: inhibition (%)
One number for each entry, in %.

For the 7 compounds below, give their inhibition values.
1. C/C(=N\NC(=O)c1cc(Br)ccc1O)c1nc2ccccc2[nH]1
2. C/C(=N\NC(=O)c1ccccn1)c1cc2ccccc2[nH]1
3. C/C(=N\NC(=O)c1ccccc1)c1cc2ccccc2[nH]1
4. COc1ccc(Br)cc1S(=O)(=O)N/N=C(\C)c1cc2c(F)c(F)ccc2[nH]1
5. CC(=NNC(=O)c1cc(Br)ccc1O)c1cc2ccccc2n1C (mixture of isomers)
6. COc1ccc2[nH]c(/C(C)=N/NC(=O)c3cc(Br)ccc3O)cc2c1
7. C/C(=N\NC(=O)c1cc(-c2ccccc2)ccc1O)c1cc2ccccc2[nH]1

A)
[96.4, 15, 28, 11, 96.3, 89.3, 20]
